Data origin, for the record: BindingDB's records for PubMed 1464308

# TARGET SYSTEM: 5-hydroxytryptamine receptor 5A (Mus musculus, UniProt P30966)
# Sequence (P30966 whole entry): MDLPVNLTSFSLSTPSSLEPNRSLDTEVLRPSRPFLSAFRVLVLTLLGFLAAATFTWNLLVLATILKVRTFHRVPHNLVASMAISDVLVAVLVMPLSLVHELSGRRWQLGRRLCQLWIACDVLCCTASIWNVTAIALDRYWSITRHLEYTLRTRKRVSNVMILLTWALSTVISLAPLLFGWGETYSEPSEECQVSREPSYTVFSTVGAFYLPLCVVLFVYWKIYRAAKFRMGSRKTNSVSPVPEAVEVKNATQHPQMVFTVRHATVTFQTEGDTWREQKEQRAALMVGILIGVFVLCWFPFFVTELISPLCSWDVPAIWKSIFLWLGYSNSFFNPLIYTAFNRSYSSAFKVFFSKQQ
Measured Ki, listed per entry for reference.
Expressed in nM, but write only the number.

Sample records with Ki:
[[record]]
compound = "CCN(CC)C(=O)[C@@H]1C=C2c3cccc4[nH]c(Br)c(c34)C[C@H]2N(C)C1"
readout = "Ki"
result_number = 1.99

[[record]]
compound = "COc1ccc2[nH]cc(C3=CCNCC3)c2c1"
readout = "Ki"
result_number = 316

[[record]]
compound = "O=C(CCCN1CCC2(CC1)C(=O)NCN2c1ccccc1)c1ccc(F)cc1"
readout = "Ki"
result_number = 2510

[[record]]
compound = "FC(F)(F)c1cccc(N2CCNCC2)c1"
readout = "Ki"
result_number = 2510

[[record]]
compound = "CCCN(CCC)C1CCc2cccc(O)c2C1 (stereo not given)"
readout = "Ki"
result_number = 1260

[[record]]
compound = "CN1C[C@H](C(=O)N[C@]2(C)O[C@@]3(O)[C@@H]4CCCN4C(=O)[C@H](Cc4ccccc4)N3C2=O)C=C2c3cccc4[nH]cc(c34)C[C@H]21"
readout = "Ki"
result_number = 3.98


Fill in Ki for record CSc1ccc2c(c1)C(N1CCN(C)CC1)Cc1ccccc1S2 (stereo not given) 100

Given CC[C@@H](CO)NC(=O)[C@@H]1C=C2c3cccc4c3c(cn4C)C[C@H]2N(C)C1 , respond with its Ki. 63.1

====

# TARGET SYSTEM: 5-hydroxytryptamine receptor 5A (Mus musculus, UniProt P30966)
pKi: −log10 of the molar value.
pKi by entry:

Name the recorded pKi of the compound listed here: CN(C)CCc1c[nH]c2ccc(O)cc12 [3-[2-(dimethylamino)ethyl]indol-5-ol] 6.00

Complete the entry with pKi for CNS(=O)(=O)Cc1ccc2[nH]cc(CCN(C)C)c2c1 < 5.00

Return pKi (reported value) for this compound: NCC(O)c1ccc(O)c(O)c1 (stereo not drawn) [Noradrenaline,(+)] < 5.00
